assay: physchem; type: physicochemical; settings: Table 2; retention factor extrapolated to pure water
Observable: logkw
Please state the value as a number alone, without comment.

INSERT INTO measurements (structure_smiles_string, observable, recorded_number) VALUES
  ('Cc1ccc(NC(=S)NNC(=O)c2ccccc2O)cc1Cl', 'logkw', 3.9451),
  ('O=C(NNC(=S)Nc1ccccc1)c1cccc(O)c1', 'logkw', 2.0687),
  ('O=C(NNC(=S)Nc1ccccc1)c1ccccc1O', 'logkw', 2.4813),
  ('Cc1occc1C(=O)NNC(=S)NC(=O)c1ccccc1', 'logkw', 2.9992),
  ('COc1cccc(C(=O)NNC(=S)NC(=O)c2cccc(Cl)c2)c1', 'logkw', 3.7422);

I am curious: what logkw value has been reported for COc1cccc(C(=O)NNC(=S)NC(=O)c2ccccc2C)c1 ? 3.4487

Could you tell me which logkw is on file for O=C(NNC(=S)Nc1ccc(Cl)cc1)c1ccccc1O ? 3.3324

Item COc1cccc(C(=O)NNC(=S)NC(=O)c2ccc(Cl)cc2)c1 has what recorded logkw? 3.9422

Endpoint output: logkw of COc1cccc(C(=O)NNC(=S)NC(=O)c2ccccc2Cl)c1 . Value? 3.8283

Would you kindly share the measured logkw for COc1cccc(C(=O)NNC(=S)NC(=O)c2cccc(C)c2)c1 ? 3.7864

----------
experiment: physchem; type: physicochemical; settings: Table S2; slope of Eq. 1
Observable: – S of standards
Keep it simple and answer with nothing but the number.

These recorded examples may help you get a feel for the data.
INSERT INTO results (molecule, observable, recorded_number) VALUES
  ('Brc1ccccc1 [bromobenzene, reference compound]', '– S of standards', 3.6630),
  ('c1ccc2ccccc2c1 [naphtalene, reference compound]', '– S of standards', 4.2289),
  ('Cc1ccccc1 [toluene, reference compound]', '– S of standards', 3.4400),
  ('CCc1ccccc1 [ethylbenzene, reference compound]', '– S of standards', 3.8740),
  ('Nc1ccccc1 [aniline, reference compound]', '– S of standards', 2.4091);

Would you kindly share the measured – S of standards for Oc1ccc2ccccc2n1 [2-hydroxyquinoline, reference compound] ? 2.9059

Quick one: – S of standards for c1ccccc1 [benzene, reference compound] ? 2.8691

----------
test: physchem; type: physicochemical; details: Table 2; retention factor extrapolated to pure water
Readings of logkw for the listed compounds
Output spec: single numeric token, no unit.

Past entries and their recorded results:
INSERT INTO assay_data (structure_smiles_string, recorded_number) VALUES
  ('O=C(NNC(=S)Nc1ccc(Cl)c(Cl)c1)c1ccccc1O', 4.1453),
  ('O=C(CS(=O)(=O)c1ccccc1)NNC(=S)NC(=O)c1ccccc1Cl', 3.2498),
  ('O=C(NNC(=S)NC1CCCCC1)c1ccccc1O', 3.2386),
  ('COc1cccc(C(=O)NNC(=S)NC(=O)c2ccccc2)c1', 3.3130),
  ('O=C(NNC(=S)NC1CCCCC1)c1cccc(O)c1', 2.7583);

// moving on: another record for logkw
Give the measured logkw of O=C(NC(=S)NNC(=O)c1ccc[nH]1)c1ccccc1 . 2.5105

----------
test: physchem; type: physicochemical; conditions: Table 1; retention factor extrapolated to pure water (Eq. 1), methanol 45–75%, RP-18, 25 °C
Observable: logkw
Just the number.

If you can, please state the reported logkw value of Cc1ccc(NC(=S)NNC(=O)c2ccccc2O)cc1Cl . 3.9451

What logkw value was documented for this molecule, Cc1occc1C(=O)NNC(=S)NC(=O)c1ccccc1 ? 2.9992

# input molecule: O=C(NNC(=S)Nc1ccc(Cl)cc1)c1ccccc1O ; wanted: its logkw 3.3324

Quick one: logkw of COc1cccc(C(=O)NNC(=S)NC(=O)c2ccccc2Cl)c1 ? 3.8283

# get_value(readout='logkw', item= O=C(CS(=O)(=O)c1ccccc1)NNC(=S)NC(=O)c1ccccc1Cl ) 3.2498

# lookup: logkw of COc1cccc(C(=O)NNC(=S)NC(=O)c2cccc(Cl)c2)c1 3.7422

Data request, read-out logkw, for COc1cccc(C(=O)NNC(=S)NC(=O)c2ccccc2)c1 3.3130

What value of logkw has been recorded for this entry: O=C(NNC(=S)NC(=O)c1ccccc1Cl)c1ccccc1O 4.2230

Which logkw is listed for O=C(NNC(=S)Nc1ccccc1)c1cccc(O)c1 ? 2.0687

Need logkw of O=C(NC(=S)NNC(=O)c1ccc[nH]1)c1ccccc1 , thanks. 2.5105

Data provenance is paper PMC6152747.
